# system_under_test: PCK2; also: test concentration or dose not given here
# assay_context: ASO
These antisense oligonucleotides have a phosphorothioate backbone; sugars and methylation of C are not fully specified.
measurement_name: remaining target (mRNA or protein) (fraction of control)
# answer = number (no unit)

Worked examples follow.
[
  {
    "macromolecule_sequence": "TGCCTTCCCTATTCCCAGAT",
    "observed_value": 0.82
  },
  {
    "macromolecule_sequence": "AATGCCAGTGGGAAGCTGGC",
    "observed_value": 0.88
  },
  {
    "macromolecule_sequence": "CTTTGTGTTCTGCTGCAGCA",
    "observed_value": 0.49
  },
  {
    "macromolecule_sequence": "TTTCCAGGGTTTGCCCAGCC",
    "observed_value": 0.55
  },
  {
    "macromolecule_sequence": "ACCAGGCGGGAGTGGTACCG",
    "observed_value": 0.84
  }
]

Task: Data request, read-out remaining target (mRNA or protein) (fraction of control), for TCCATCACAGATGTGGATGC
Output: 0.87

Task: Would you kindly repeat that for TGCGGCCATGGCACCTGGGC ?
Output: 0.55

Task: Would you kindly repeat that for TGAGGCCGCTGAGATCCAAG ?
Output: 0.67
